- procedureText: Tissue distribution of SDC-TRAP and degradation products in tumor-bearing mice (plasma, tumor, heart)
- Format: in vivo, Female SCID Mouse (H1975)
- measurementContext: female, SCID, mouse, in vivo
assayEndpoint: Kp at 12 h

What Kp at 12 h value was documented for this compound, CCc1c2c(nc3ccc(O)cc13)-c1cc3c(c(=O)n1C2)COC(=O)[C@]3(O)CC [SN-38, reference compound] ? 105

---

- procedureText: Artificial membrane permeability assay (PAMPA)
- measurementContext: Permeability (cm/s), 5 h incubation, peak area used in place of concentration, first table
Please note: yes applies when Papp at 5 h is 0.01 ×10⁻⁶ cm/s or greater, and no applies otherwise.

CC(C)c1cc(-c2nnc(O)n2-c2ccc3c(ccn3CCN(C)C(=O)CCCC(=O)Nc3cccc4c3CN(C3CCC(=O)NC3=O)C4=O)c2)c(O)cc1O (centres unmarked); yes
Cn1c(=O)c2c(ncn2C)n(C)c1=O; yes
CCNC(=O)c1nnc(-c2cc(C(C)C)c(O)cc2O)n1-c1ccc(CN2CCC(C(=O)N[C@@H](CC(C)C)C(=O)Nc3cccc4c3CN(C3CCC(=O)NC3=O)C4=O)CC2)cc1 (some centres unmarked); no
CC(C)c1cc(-c2nnc(O)n2-c2ccc(CN3CCN(C(=O)CCn4cc(F)c(=O)[nH]c4=O)CC3)cc2)c(O)cc1O; yes

Note: attention shifts to another entry.
For this molecule, is measured Papp at 5 h 0.01 ×10⁻⁶ cm/s or higher? CC(=O)O[C@@]12CO[C@@H]1C[C@H](O)[C@@]1(C)C(=O)[C@H](O)C3=C(C)[C@@H](OC(=O)[C@H](O)[C@@H](NC(=O)OC(C)(C)C)c4ccccc4)C[C@@](O)([C@@H](OC(=O)c4ccccc4)[C@H]21)C3(C)C [Docetaxel, docetaxel, reference compound] yes

---

- procedureText: Tissue distribution of SDC-TRAP and degradation products in tumor-bearing mice (plasma, tumor, heart)
- Format: in vivo, Female SCID Mouse (H1975)
- measurementContext: female, SCID, mouse, in vivo
assayEndpoint: concentration at 12 h (nM)
Give bare numbers, in nM.

What concentration at 12 h value was documented for this compound, CCc1c2c(nc3ccc(O)cc13)-c1cc3c(c(=O)n1C2)COC(=O)[C@]3(O)CC [SN-38, reference compound] ? 9.55

---

- procedureText: Tissue distribution of ganetespib in female CD-1 nu/nu mice bearing RERF human NSCLC xenografts
- Assay type: in vivo
- measurementContext: mouse, tumor, ganetespib 50 mg/kg IV, DRD
- Source text: Tissue Distribution of Ganetespib in Female CD-1 Nu/Nu Mice Bearing RERF Human NSCLC Xenografts To confirm the distribution of ganetespib in blood, livers, kidneys, brains, hearts, lungs and tumors after IV administration of ganetespib to female CD-1 nu/nu mice bearing RERF human NSCLC xenografts, and to examine metabolic profiles of ganetespib in plasma, red blood cells, and above tissues. Animals: female CD-1 nu/nu mice bearing RERF human NSCLC xenografts (N=3/group) […]
assayEndpoint: concentration at 5 min (nM)
Give bare numbers, in nM.

What concentration at 5 min value was documented for this compound, CC(C)c1cc(-c2n[nH]c(=O)n2-c2ccc3c(ccn3C)c2)c(O)cc1O ? 2350

---

What Papp at 5 h was measured for each of the following?
- procedureText: Artificial membrane permeability assay (PAMPA)
- measurementContext: Permeability (10^−6 cm/s), 5 h incubation, peak area used in place of concentration, first table
One number for each entry, in ×10⁻⁶ cm/s.

CC(C)c1cc(-c2nnc(O)n2-c2ccc3c(ccn3CCN(C)C(=O)CCCC(=O)Nc3cccc4c3CN(C3CCC(=O)NC3=O)C4=O)c2)c(O)cc1O (stereo not shown); 0.0268
Nc1cccc2c1CN(C1CCC(=O)NC1=O)C2=O (stereo not shown) [Lenalidomide, lenalidomide, reference compound]; 0.062
CC(C)c1cc(-c2nnc(O)n2-c2ccc3c(ccn3CCOCCNC(=O)CCn3cc(F)c(=O)[nH]c3=O)c2)c(O)cc1O; 0.0283
CCNC(=O)c1nnc(-c2cc(C(C)C)c(O)cc2O)n1-c1ccc(CN2CCC(C(=O)N[C@@H](CC(C)C)C(=O)Nc3cccc4c3CN(C3CCC(=O)NC3=O)C4=O)CC2)cc1 (stereo partly shown); 0.00859
CCc1c2c(nc3ccc(O)cc13)-c1cc3c(c(=O)n1C2)COC(=O)[C@]3(O)CC [SN-38, reference compound]; 0.643
CC(C)c1cc(-c2nnc(C(=O)NCCCCCS(N)(=O)=O)n2-c2ccc(CN3CCOCC3)cc2)c(O)cc1O; 0.00689

Proceeding to the next molecule to report its Papp at 5 h.
What Papp at 5 h value was documented for this molecule, Cn1c(=O)c2c(ncn2C)n(C)c1=O ? 11.7
